# Experiment Description: qHTS assay to test for compound auto fluorescence at 590 nm (red) in HEK293 cell free culture (AID 720683)
# Condition Info: cell-free medium autofluorescence, Ex540/Em590 red; series mostly up to 46 µM
The source made the active and inactive calls. Calls come from the whole dose curve; as a rule, active = well fitted curve in the direction sought with a large enough effect in the repeat runs; inconclusive = weak or mixed curves; inactive = flat fitted curve, though single readings scatter.
Property Name: outcome

Example entries begin here.
Structure String: Cc1ccccc1-n1c(C)nc2ccccc2c1=O
outcome: inactive
--
Structure String: C[C@@H]1[C@@H]2Cc3ccc(O)cc3[C@@]1(C)CCN2CC1CC1
outcome: inactive
--
Structure String: CN(C)[C@H](Cc1ccccc1)c1ccccc1
outcome: inactive
--
Structure String: CNC(=O)OCC[N+](C)(C)C
outcome: inactive
--
Structure String: CN[C@]1(c2ccccc2Cl)CCCCC1=O
outcome: inactive

What measured outcome goes with C[C@]12C[C@H]3S[C@H]3C[C@@H]1CC[C@@H]1[C@@H]2CC[C@]2(C)[C@@H](O)CC[C@@H]12 ? inactive

What measured outcome goes with CC(=O)OCC(=O)[C@H]1CC[C@H]2[C@@H]3CC[C@H]4C[C@H](O)CC[C@]4(C)[C@H]3C(=O)C[C@]12C ? inactive

What measured outcome goes with Nc1ccc([N+](=O)[O-])cc1 ? inactive

What measured outcome goes with C[C@@H](Cc1ccccc1)N(C)C ? inactive

What measured outcome goes with CCCCCc1cc(O)c2c(c1)OC(C)(C)c1ccc(C)cc1-2 ? inactive

What measured outcome goes with [H+].[H+].[Hg+2].[O-]B([O-])[O-].[c-]1ccccc1 ? inactive
